Data origin, for the record: the CombiSolv-Exp solvation set (Vermeire and Green 2021)

- test details: solvent given as SMILES
- settings: in CC(=O)CC(C)C
result type: solvation free energy, 298 K (kcal/mol)
Numbers only, in kcal/mol.

ClCCCl -4.68
c1ccccc1 -4.44
CC(=O)Oc1ccccc1C(=O)O -13.2
C1CCCCC1 -3.92

Let us move to another entry and its solvation free energy, 298 K.
// query Output solvation free energy, 298 K of ClC(Cl)(Cl)Cl
// result -4.22

---

I'd appreciate it if you could supply solvation free energy, 298 K values for the items below.
- test details: solvent given as SMILES
- settings: in Cc1ccccn1
One number for each entry, in kcal/mol.

Some entries whose results are on file:
CCCC(C)C -3.28
CC(C)CC(C)C -3.66
C1CCCCC1 -3.91

Let us move to another entry and its solvation free energy, 298 K.
// query Output solvation free energy, 298 K of Cc1ccccc1
// result -5.12
